Exercise: for every item that follows, state its recorded Ki.
Biological target: Cannabinoid receptor 2 (Homo sapiens)
Sequence (P34972 whole entry): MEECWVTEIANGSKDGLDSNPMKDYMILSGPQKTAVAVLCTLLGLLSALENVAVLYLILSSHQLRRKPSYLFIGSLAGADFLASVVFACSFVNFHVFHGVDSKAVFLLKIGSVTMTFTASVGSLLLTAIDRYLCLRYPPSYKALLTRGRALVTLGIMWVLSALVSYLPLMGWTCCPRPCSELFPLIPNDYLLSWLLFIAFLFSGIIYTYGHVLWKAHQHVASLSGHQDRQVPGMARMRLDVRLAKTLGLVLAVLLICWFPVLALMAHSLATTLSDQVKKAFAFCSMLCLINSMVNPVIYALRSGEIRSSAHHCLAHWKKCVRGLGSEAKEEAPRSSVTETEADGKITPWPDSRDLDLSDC
Assay: biochemical

Ki lookup needed for O=S1(=O)CCN(/C(=N\S(=O)(=O)c2ccc(Cl)cc2)N2CC(c3ccccc3)C(c3ccc(Cl)cc3)=N2)CC1 (centres undefined) , thanks.
0.571 µM

Ki lookup needed for O=S(=O)(N=C(NCCCCN1CCCC1)N1CC(c2ccccc2)C(c2ccc(Cl)cc2)=N1)c1ccc(Cl)cc1 (centres undefined) , thanks.
> 1 µM

Ki lookup needed for CN(C)CCCN/C(=N\S(=O)(=O)c1ccc(Cl)cc1)N1CC(c2ccccc2)C(c2ccc(Cl)cc2)=N1.Cl (centres undefined) , thanks.
> 1 µM

Ki lookup needed for CN(C)CCN1CCN(/C(=N\S(=O)(=O)c2ccc(Cl)cc2)N2CC(c3ccccc3)C(c3ccc(Cl)cc3)=N2)CC1 (centres undefined) , thanks.
> 1 µM

---

property_label: pKi
Friendly reminder that pKi comes from taking -log10 of the concentration in mol/L.

I'm curious: which pKi was measured for CN1CCC(N/C(=N\S(=O)(=O)c2ccc(Cl)cc2)N2CC(c3ccccc3)C(c3ccc(Cl)cc3)=N2)CC1 (stereo not drawn) tested on Cannabinoid receptor 1 (Homo sapiens)?
7.72

I'm curious: which pKi was measured for CC(C)(O)CN=C(NS(=O)(=O)c1ccc(Cl)cc1)N1CC(c2ccccc2)C(c2ccc(Cl)cc2)=N1 (stereo not drawn) tested on Cannabinoid receptor 1 (Homo sapiens)?
7.37

I'm curious: which pKi was measured for CN(C)CCCN/C(=N\S(=O)(=O)c1ccc(Cl)cc1)N1CC(c2ccccc2)C(c2ccc(Cl)cc2)=N1.Cl (stereo not drawn) tested on Cannabinoid receptor 1 (Homo sapiens)?
8.51

I'm curious: which pKi was measured for O=S(=O)(N=C(NCCCCN1CCCC1)N1CC(c2ccccc2)C(c2ccc(Cl)cc2)=N1)c1ccc(Cl)cc1 (stereo not drawn) tested on Cannabinoid receptor 1 (Homo sapiens)?
7.57

I'm curious: which pKi was measured for O=S(=O)(/N=C(\NCCCCNc1c2c(nc3ccccc13)CCCC2)N1CC(c2ccccc2)C(c2ccc(Cl)cc2)=N1)c1ccc(Cl)cc1 (stereo not drawn) tested on Cannabinoid receptor 1 (Homo sapiens)?
7.38

I'm curious: which pKi was measured for CCc1c(C(=O)NN2CCCCC2)nc(-c2ccccc2Cl)n1-c1ccc(Cl)cc1 tested on Cannabinoid receptor 1 (Homo sapiens)?
7.85

I'm curious: which pKi was measured for CN(C)CCN1CCN(/C(=N\S(=O)(=O)c2ccc(Cl)cc2)N2CC(c3ccccc3)C(c3ccc(Cl)cc3)=N2)CC1 (stereo not drawn) tested on Cannabinoid receptor 1 (Homo sapiens)?
8.02

I'm curious: which pKi was measured for O=S1(=O)CCN(/C(=N\S(=O)(=O)c2ccc(Cl)cc2)N2CC(c3ccccc3)C(c3ccc(Cl)cc3)=N2)CC1 (stereo not drawn) tested on Cannabinoid receptor 1 (Homo sapiens)?
7.51
